Source listed as patent US8029764B2.

# Tested on: colorectal tissue transcripts
# ASSAY TEXT: SAGE of normal, adenoma and cancer colorectal tissue (transcript tag counts)
# Design: species or system human
# MEASUREMENT SETUP: SAGE library NC2
# Procedure: In an effort to identify potential molecular markers of early colorectal tumors, we have here analyzed gene expression in benign and malignant colorectal tumors in an unbiased and comprehensive fashion. […] The abundance of each tag provides a quantitative measure of the transcript level present within the mRNA population studied. […] For the current study, SAGE libraries derived from two samples of normal colonic epithelium, two colorectal adenomas, and two colorectal cancers were analyzed. […]
Below, each of the sequences is paired with its reported NC2 (SAGE tag count) value.

{"columns": ["PRIMARY SEQUENCE", "NC2 (SAGE tag count)"],
 "data": [
  ["ACTCTTGTTG (chemistry not fully specified)", 2],
  ["CATAGGTTTA (chemistry not fully specified)", 39],
  ["CTGGCTATCC (chemistry not fully specified)", 3],
  ["GATCCCAACT (chemistry not fully specified)", 29],
  ["GGAAGAGCAC (chemistry not fully specified)", 11],
  ["CTGGCAAAGG (chemistry not fully specified)", 22],
  ["ACTGTGGCGG (chemistry not fully specified)", 34],
  ["CTGACCTGTG (chemistry not fully specified)", 130],
  ["AAGAAGCAGG (chemistry not fully specified; the letters are possibly those of the target site)", 16],
  ["ACCCAACTGC (chemistry not fully specified)", 3],
  ["GTAGCAGGTG (chemistry not fully specified)", 27],
  ["GTGGTGGCAG (chemistry not fully specified; the letters are possibly those of the target site)", 11],
  ["GAGCACCGTG (chemistry not fully specified)", 4],
  ["CTTAGAGGGG (chemistry not fully specified)", 22],
  ["GCCCACGTCA (chemistry not fully specified)", 8],
  ["GTGGCGGGAA (chemistry not fully specified)", 15],
  ["GCACCCTTTC (chemistry not fully specified)", 5],
  ["CAAGAGTTTC (chemistry not fully specified)", 2],
  ["GGAACTGTGA (chemistry not fully specified)", 84]
]}
